// provenance: the supplement of paper PMC10567573

B1: SOAT2 (parent)
chain: SLGKQKVFIIRKSLLDELMEVQHF

# Variants of: B1
# protocolDetails: protein stability index of a GFP-peptide fusion (GPS, HEK-293T) (PSI 1-6); higher = more stable;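 also: lentivirally expressed fusions sorted by FACS into six bins by GFP to DsRed ratio, PSI derived from sequencing read proportions per bin multiplied by bin number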
# measurementConditions: c terminus: a fixed tail appended
metric: protein stability index

* S1Q | 2.6
* V21I | 3.07
* I9H | 2.22
* S1I | 3.6
* L2E | 1.75
* Q5K | 2.63
* K6D | 1.67
* V7S | 1.74
* K6T | 3.25
* E17S | 3.09
* L15Y | 1.52
* L15D | 2.38
* K6W | 2.47
* Q5R | 3.01
* K4S | 2.25
* L2N | 2.58
* I10T | 1.98
* I9Y | 2.85
* M19N | 3.23
* Q5H | 2.05
* Q22A | 2.4
* L2Y | 2.69
* L18Q | 2.21
* L2V | 3.51
* L14R | 2.64
* D16R | 4.61
* I9F | 2.41
* E17T | 3.87
* S1M | 2.1
* E20F | 3.11
* L15R | 2.41
